Field: ratio of amounts bound (Z=Y/X). Provide a value for each of the binders that follow.
molecular target: T1, CD3 epsilon homodimer protein (UniProt P07766 23-126); experiment: SPR Biacore T200, CD3e homodimer on chip, vs unaltered GLS3000 antibody
T1 construct: also called CD3 (CD3 epsilon)
T1 sequence (P07766 23-126): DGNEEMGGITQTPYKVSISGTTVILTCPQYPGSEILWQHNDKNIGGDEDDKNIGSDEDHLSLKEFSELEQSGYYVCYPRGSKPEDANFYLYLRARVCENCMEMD
Simply state the number, no unit and no words.

query: Reported ratio of amounts bound (Z=Y/X) for GLS3000 N53P (antibody, name in Kabat numbering, V domains shown, one-arm IgG as m2) VH: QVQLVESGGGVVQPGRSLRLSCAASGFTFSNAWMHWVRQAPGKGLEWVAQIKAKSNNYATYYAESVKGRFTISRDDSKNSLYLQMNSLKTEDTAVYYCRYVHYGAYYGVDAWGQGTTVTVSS VL: DIVMTQSPLSLPVTPGEPASISCRSSQSLVHSNRNTYLHWYQQKPGQAPRLLIYKVSPRFSGVPDRFSGSGSGTDFTLKISRVEAEDVGVYYCGQGTQVPYTFGQGTKLEIK : what is it?
result: 0.81

query: Reported ratio of amounts bound (Z=Y/X) for GLS3000 L33E (antibody, name in Kabat numbering, V domains shown, one-arm IgG as m2) VH: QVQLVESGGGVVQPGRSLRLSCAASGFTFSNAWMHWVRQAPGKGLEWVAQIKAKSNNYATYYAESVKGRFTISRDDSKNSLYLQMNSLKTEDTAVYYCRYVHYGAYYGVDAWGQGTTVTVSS VL: DIVMTQSPLSLPVTPGEPASISCRSSQSLVHSNRNTYEHWYQQKPGQAPRLLIYKVSNRFSGVPDRFSGSGSGTDFTLKISRVEAEDVGVYYCGQGTQVPYTFGQGTKLEIK : what is it?
result: 0.72

query: Reported ratio of amounts bound (Z=Y/X) for GLS3000 S27eD (antibody, name in Kabat numbering, V domains shown, one-arm IgG as m2) VH: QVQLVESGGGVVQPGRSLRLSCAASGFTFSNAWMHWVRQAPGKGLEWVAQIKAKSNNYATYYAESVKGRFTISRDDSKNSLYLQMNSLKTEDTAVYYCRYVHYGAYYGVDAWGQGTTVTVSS VL: DIVMTQSPLSLPVTPGEPASISCRSSQSLVHDNRNTYLHWYQQKPGQAPRLLIYKVSNRFSGVPDRFSGSGSGTDFTLKISRVEAEDVGVYYCGQGTQVPYTFGQGTKLEIK : what is it?
result: 0.69

query: Reported ratio of amounts bound (Z=Y/X) for GLS3000 H27dI (antibody, name in Kabat numbering, V domains shown, one-arm IgG as m2) VH: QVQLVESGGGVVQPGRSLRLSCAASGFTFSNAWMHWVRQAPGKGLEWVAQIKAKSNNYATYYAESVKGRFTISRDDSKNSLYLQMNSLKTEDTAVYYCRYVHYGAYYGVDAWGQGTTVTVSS VL: DIVMTQSPLSLPVTPGEPASISCRSSQSLVISNRNTYLHWYQQKPGQAPRLLIYKVSNRFSGVPDRFSGSGSGTDFTLKISRVEAEDVGVYYCGQGTQVPYTFGQGTKLEIK : what is it?
result: 0.26

query: Reported ratio of amounts bound (Z=Y/X) for GLS3000 H27dP (antibody, name in Kabat numbering, V domains shown, one-arm IgG as m2) VH: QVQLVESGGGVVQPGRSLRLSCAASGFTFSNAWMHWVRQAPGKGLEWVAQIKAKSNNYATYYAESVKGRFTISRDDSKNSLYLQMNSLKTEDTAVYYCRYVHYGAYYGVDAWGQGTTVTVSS VL: DIVMTQSPLSLPVTPGEPASISCRSSQSLVPSNRNTYLHWYQQKPGQAPRLLIYKVSNRFSGVPDRFSGSGSGTDFTLKISRVEAEDVGVYYCGQGTQVPYTFGQGTKLEIK : what is it?
result: 0.24
